Below is a list of entries, each paired with its recorded chromatographic logP value.
Assay: logP by HPLC on reversed-phase columns (C 18), EEC Directive 79/831 Annex V.A8
Format: physicochemical
Conditions: c18 reversed-phase hplc, reversed-phase (C 18), read-out: log p
MEASURE: chromatographic logP

>>> result_number("CN(C)C=Nc1ncc(Cl)cc1-c1ccc(F)c(C(F)(F)F)c1 [compound 13]")
2
>>> result_number("Fc1ccc(-c2cc(Cl)cnc2N=CN2CCCC2)cc1C(F)(F)F [compound 16]")
1.75
>>> result_number("CC(C)N(C=Nc1ncc(Cl)cc1-c1ccc(F)c(C(F)(F)F)c1)C(C)C [compound 21]")
4.19
>>> result_number("CCN(C)C=Nc1ncc(Br)cc1-c1ccc(Cl)c(C(F)(F)F)c1 [compound 17]")
3.09
>>> result_number("Cc1cnc(N=CN2CCCC2)c(-c2ccc(F)c(C(F)(F)F)c2)c1 [compound 25]")
1.46

Recorded values, source patent EP2264010A1.
